Listing: folding stability dG unfold of selected sequences
Assay: folding stability dG unfold (combined trypsin and chymotrypsin); higher = more stable
Answer format: numeric, kcal/mol implied, no suffix.

# annotated cases, reported folding stability dG unfold shown
{"columns": ["monomer.sequence", "folding stability dG unfold / kcal/mol"],
 "data": [
  ["SAGGSAGGSMVLIIVPPSKPELAEEKAKELAEKGEIKEYEIKTVSSEEEAEKLAKNYEKVILESAGGSAGGS [r12_679_JUSTAS]", -0.324],
  ["SMTLVLENEDGSLYRIEFDEETGEIYIYNAETGEKYRITFKDGKTEEINAKDLSLEELKALPGLKIEPVPSA [r9_205_TrROS_Hall]", 3.13],
  ["SAGGSAGGSAGGSMSSTVTTTLVEVGPPNGKRVLVRRTTTTFPDGSVTTTVTVLSTTIASAGGSAGGSAGGS [r4_496_JUSTAS]", 2.37]
]}

Now consider a different sequence.
// Input: GLEVKVDITVDPVGGGTRIPVTVSVPGRPIAQATADVDPETGVVNLDLGAESEEERKAALEKLKEAGIKLGS [r1_455_JUSTAS] . Output its folding stability dG unfold only.
1.35

* * *

Listing: folding stability dG unfold of selected sequences
Assay: folding stability dG unfold (combined trypsin and chymotrypsin); higher = more stable
Answer format: numeric, kcal/mol implied, no suffix.

{"columns": ["monomer.sequence", "measured.property", "assay.result"],
 "data": [
  ["SAGGSAGGMKATFHPGPGRFPLGDKEYEVDLIYVTVTLPNGVPRVFVLTPDEVEELLPDLELEGSAGGSAGG [r6_561_TrMRF]", "folding stability dG unfold", 0.794]
]}

// Input: SAMKTYTFEFTLTVPPDTPLEEVKAKVKEKVKAELKKLGIPLPETAKIEIKKVKEEGNKIYFKVTVTNKSAG [r14_735_JUSTAS] . Output its folding stability dG unfold only.
4.16

// Input: SAGGGPEEIRRAAEALAAELAAELGLEVVEVEVEVREDGTVTVRITVRLPDGSKLEITLTLPAGAPLSAGGS [r8_175_TrROS_Hall] . Output its folding stability dG unfold only.
1.65

// Input: SAGGSSVTTTVSEETLPDGLRLLTTTTTTTTVPGKPDLRITTVTTTALDPVTGETTAVGTSTTVVAPSAGGS [r8_65_JUSTAS] . Output its folding stability dG unfold only.
0.63

// Input: PMIAPARLPDGSQTVSIFNANGELLVEAVVENDPELIEEAIEKLFEALPNIKPEELHVSVSDPETGESREIS [r1_55_TrMRF] . Output its folding stability dG unfold only.
0.671

* * *

Experiment: folding stability dG unfold from trypsin proteolysis; higher = more stable
measured.property: folding stability dG unfold (kcal/mol)
Answer format: numeric, kcal/mol implied, no suffix.

# annotated cases, reported folding stability dG unfold shown
{"columns": ["monomer.sequence", "measured.property", "assay.result"],
 "data": [
  ["SAEELARRLRELGLEVEIVRIERERRPDGTIRIEVRLDGELVAELEVRLPPPPPPVEVVRDADGRERRVRSA [r9_442_TrROS_Hall]", "folding stability dG unfold", 1.63],
  ["SAPPPVQTLTLTVYDPETGRLVKIEVTRRPDGTLEVRVEVVDLETNEVTTETITLPGLTLDELLKLLEEASA [r9_618_TrROS_Hall]", "folding stability dG unfold", 3.09],
  ["SAGGSEKIEVEVERREDGYLVLRVRLELFDENGELVEEIEIEVVLPREELEKMSLEELLKRLLEELSAGGSA [r2_421_TrROS_Hall]", "folding stability dG unfold", 3.99]
]}

Now consider a different sequence.
// Input: SAGISIRFPGMQIEIDEIERDNNKVVIRVEVTMPAKNPNGQPQMMTHTMWIVIKIPPPPPPADPADAKKSAG [r5_70_TrROS] . Output its folding stability dG unfold only.
2.81
